Target: rat pituitary cells (Rattus norvegicus)
Sequence (O08725 whole entry): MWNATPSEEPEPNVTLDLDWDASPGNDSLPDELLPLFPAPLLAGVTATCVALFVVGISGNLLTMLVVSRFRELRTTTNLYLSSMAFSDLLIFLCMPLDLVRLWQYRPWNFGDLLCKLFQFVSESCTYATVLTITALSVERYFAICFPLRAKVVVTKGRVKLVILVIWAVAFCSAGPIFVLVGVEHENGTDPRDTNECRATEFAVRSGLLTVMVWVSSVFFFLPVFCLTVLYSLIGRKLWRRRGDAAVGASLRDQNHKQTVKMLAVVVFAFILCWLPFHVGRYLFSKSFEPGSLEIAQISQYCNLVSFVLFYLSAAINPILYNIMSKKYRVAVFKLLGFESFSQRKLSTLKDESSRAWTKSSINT
Settings: read-out: PIT Cell EC50; Table III, formula IV compounds; GH release, 15 min incubation
Non-standard residues stand in square brackets, D forms with d. Residues, ends and D or L forms follow the SMILES beside them. ξ: configuration not given here. *: point of attachment. Tyr(3-I) = N[C@@H](Cc1ccc(O)c(I)c1)C(=O)O; dNMe2Nal = CN[C@H](Cc1ccc2ccccc2c1)C(=O)O; 2Nal = N[C@@H](Cc1ccc2ccccc2c1)C(=O)O; d2Nal = N[C@H](Cc1ccc2ccccc2c1)C(=O)O; ξNMe2Nal = CNC(Cc1ccc2ccccc2c1)C(=O)O; Morpholide = C1CN(*)CCO1; Inp = O=C(O)C1CCNCC1; ξK = NCCCCC(N)C(=O)O; Ava = NCCCCC(=O)O
property-label: EC50

Known EC50 results, listed for orientation:
{"columns": ["molecule", "measurement"],
 "data": [
  ["NCCCCC(=O)N[C@H](Cc1ccc2ccccc2c1)C(=O)N[C@H](Cc1ccc2ccccc2c1)C(=O)N[C@@H](Cc1ccc2ccccc2c1)C(=O)N[C@@H](CCCCN)C(N)=O [(Ava) b b B K amide] (H-[Ava][d2Nal][d2Nal][2Nal]K-NH2)", "0.7 nM"],
  ["NCCCC[C@H](NC(=O)[C@H](Cc1ccccc1)NC(=O)[C@@H](Cc1ccc2ccccc2c1)NC(=O)[C@@H](Cc1ccc2ccccc2c1)NC(=O)C1CCNCC1)C(=O)N[C@@H](Cc1ccc(O)c(I)c1)C(N)=O [(inip) b b F K Y(I) amide] (H-[Inp][d2Nal][d2Nal]FK[Tyr(3-I)]-NH2)", "0.69 nM"],
  ["CN(C(=O)C1CCNCC1)[C@H](Cc1ccc2ccccc2c1)C(=O)N[C@H](Cc1ccc2ccccc2c1)C(=O)N[C@@H](Cc1ccccc1)C(=O)N1CCOCC1 [(inip) nmb b F mor] (H-[Inp][dNMe2Nal][d2Nal]F-Morpholide)", "0.8 nM"],
  ["C[C@@H](N)C(=O)N[C@H](Cc1ccc2ccccc2c1)C(=O)N[C@H](Cc1ccc2ccccc2c1)C(=O)N[C@@H](Cc1ccccc1)C(=O)N[C@@H](CCCCN)C(N)=O [a b b F K amide] (H-[dA][d2Nal][d2Nal]FK-NH2)", "3.5 nM"],
  ["CN(C)C(=O)C(Cc1ccccc1)NC(=O)[C@@H](Cc1ccc2ccccc2c1)NC(=O)[C@@H](Cc1ccc2ccccc2c1)NC(=O)C1CCNCC1 (single isomer, unassigned)", "12 nM"]
]}

Shifting focus to the molecule that follows.
Give the reported value of EC50 for this record: CN(C(=O)C1CCNCC1)C(Cc1ccc2ccccc2c1)C(=O)N[C@H](Cc1ccc2ccccc2c1)C(=O)N[C@@H](Cc1ccccc1)C(=O)NC(CCCCN)C(N)=O (stereo partly drawn) [(inip) nmb b F K amide, (inip)-(N-Me-DβNal)-DβNal-Phe-Lys-amide] (H-[Inp][ξNMe2Nal][d2Nal]F[ξK]-NH2)
0.27 nM

---

Tested on: growth hormone secretion
Test: GHRP induced growth hormone secretion, intravenous administration (Rat IV)
Assay type: in vivo
Conditions: Table III; iv injection, serum GH 10 min after injection
Non-standard residues stand in square brackets, D forms with d. Residues, ends and D or L forms follow the SMILES beside them. *: point of attachment. d2Nal = N[C@H](Cc1ccc2ccccc2c1)C(=O)O; Inp = O=C(O)C1CCNCC1; NHtBu = CC(C)(C)N*
property-label: RAT IV ED50 (µg)
Give the value in µg but do not write µg after it.

Give the reported value of RAT IV ED50 for this record: CN(C)C(=O)C(Cc1ccccc1)NC(=O)[C@@H](Cc1ccc2ccccc2c1)NC(=O)[C@@H](Cc1ccc2ccccc2c1)NC(=O)C1CCNCC1 (single isomer, unassigned) [(inip) b b F dam]
10

Give the reported value of RAT IV ED50 for this record: CC(C)(C)NC(=O)[C@H](Cc1ccccc1)NC(=O)[C@@H](Cc1ccc2ccccc2c1)NC(=O)[C@@H](Cc1ccc2ccccc2c1)NC(=O)C1CCNCC1 [(inip) b b F tbm] (H-[Inp][d2Nal][d2Nal]F-NHtBu)
10

Give the reported value of RAT IV ED50 for this record: NCCCNC(=O)[C@H](Cc1ccc2ccccc2c1)NC(=O)[C@@H](Cc1ccc2ccccc2c1)NC(=O)[C@@H](Cc1ccc2ccccc2c1)NC(=O)CCCN [(Ab) b b B ram]
10

---

Target: rat pituitary cells (Rattus norvegicus)
Conditions: read-out: PIT Cell EC50; Table IV, formula III compounds; GH release, 15 min incubation
pEC50: −log10 of the molar value. Non-standard residues stand in square brackets, D forms with d. Residues, ends and D or L forms follow the SMILES beside them. *: point of attachment. d2Nal = N[C@H](Cc1ccc2ccccc2c1)C(=O)O; d(hPhe) = N[C@H](CCc1ccccc1)C(=O)O; NHPhenethyl = c1ccc(CCN*)cc1; Inp = O=C(O)C1CCNCC1; Ava = NCCCCC(=O)O
property-label: pEC50

Known pEC50 results, listed for orientation:
{"columns": ["compound", "pEC50"],
 "data": [
  ["NCCCCC(=O)N[C@H](Cc1ccccc1)C(=O)N[C@H](Cc1c[nH]c2ccccc12)C(=O)N[C@@H](Cc1ccccc1)C(N)=O [(Ava) f w F amide] (H-[Ava][dF][dW]F-NH2)", "< 6.52"],
  ["NC(=O)[C@H](Cc1ccccc1)NC(=O)[C@@H](CCc1ccccc1)NC(=O)[C@@H](CCc1ccccc1)NC(=O)C1CCNCC1 [(inip) hf hf F amide] (H-[Inp][d(hPhe)][d(hPhe)]F-NH2)", "< 6.00"],
  ["NCCCCC(=O)N[C@H](Cc1ccc2ccccc2c1)C(=O)N[C@@H](Cc1ccccc1)C(=O)N[C@@H](CCCCN)C(N)=O [(Ava) b F K amide] (H-[Ava][d2Nal]FK-NH2)", "< 6.52"]
]}

Shifting focus to the compound that follows.
Give the reported value of pEC50 for this record: NCCCCC(=O)N[C@H](Cc1ccc2ccccc2c1)C(=O)N[C@H](Cc1ccc2ccccc2c1)C(=O)NCCc1ccccc1 [(Ava) b b fem] (H-[Ava]-[d2Nal]-[d2Nal]-NHPhenethyl)
< 6.70
